I'd appreciate it if you could supply Kp at 60 min values for the items below.
# Measurement Protocol: Plasma and brain concentrations at 60 minutes post-dosing
# Assay type: in vivo
# Study Conditions: male, Sprague-Dawley, rat, brain and plasma, ip, rats, 3 mg/kg i.p., n=5
Answers are plain numbers.

Q: Give the measured Kp at 60 min of O=C(Nc1c(Cl)c[n+]([O-])cc1Cl)c1ccc(OC(F)F)c(OCC2CC2)c1 .
Ans: 0.0938

Next, consider the following compound.
Q: Returns the measured Kp at 60 min for the input compound. Input: O=C(Nc1c(Cl)cncc1Cl)c1ccc(OC(F)F)c(OCC2CC2)c1
Ans: 0.75

* * *

# Measurement Protocol: Plasma and brain concentrations at 60 minutes post-dosing
# Format: in vivo
# Study Conditions: male, Sprague-Dawley, rat, plasma, ip, rats, 3 mg/kg i.p., n=5, read-out: Plasma concentration
Test Readout: concentration at 60 min (nM)
Give bare numbers, in nM.

Look up concentration at 60 min for the entries below, preserving their order.
1. O=C(Nc1c(Cl)cncc1Cl)c1ccc(OC(F)F)c(OCC2CC2)c1
2. O=C(Nc1c(Cl)c[n+]([O-])cc1Cl)c1ccc(OC(F)F)c(OCC2CC2)c1

Ans:
[200, 4370]
